Molecular target: T1, CRBN, Q96SW2;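 further: pooled lentiviral library of zinc finger degron-EGFP fusions in mCherry-positive Jurkat cells, FACS-sorted after compound exposure, with degron abundance counted by next-generation sequencing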
T1 chain: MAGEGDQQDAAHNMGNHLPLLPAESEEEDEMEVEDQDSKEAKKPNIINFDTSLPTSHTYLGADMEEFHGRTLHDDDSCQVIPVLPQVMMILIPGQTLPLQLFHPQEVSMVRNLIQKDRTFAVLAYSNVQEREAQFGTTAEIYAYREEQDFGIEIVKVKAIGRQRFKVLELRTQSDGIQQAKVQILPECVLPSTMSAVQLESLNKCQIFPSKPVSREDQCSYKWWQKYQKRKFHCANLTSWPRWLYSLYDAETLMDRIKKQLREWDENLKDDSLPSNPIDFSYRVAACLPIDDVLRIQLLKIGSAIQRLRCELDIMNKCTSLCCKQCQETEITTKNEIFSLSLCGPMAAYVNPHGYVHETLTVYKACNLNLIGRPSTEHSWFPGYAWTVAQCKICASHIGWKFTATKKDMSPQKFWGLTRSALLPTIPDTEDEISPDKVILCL
Experiment: log2 fold change of degron read counts, EGFP-low vs EGFP+ sorted cells (limma voom), compound-induced degradation; higher = more compound-induced degradation of the degron-EGFP fusion; degrons are variants of IKZF1/3 zinc finger 2; compound dose not given here
Conditions: Jurkat; 18 h; compound: compound 33 (diphenyl IMiD analogue)
The full ranking holds about 8,300 sequences; the median of “log2 fold change of degron read counts, EGFP-low vs EGFP+ sorted cells (limma voom), compound-induced degradation” is about -1.1, and the highest 2% start at about 3.2. The sample holds the highest values, similar sequences and a random draw of the others, so the mix is not that of the screen.
property_measured: log2 fold change of degron read counts
Give bare numbers.

Consider the worked cases shown below.
{"residue_sequence": "FNCEVCGACFTQKGNLLRHIKL [46F_47N_49E_50V_52G_53A_54C_55F_67L_, Q9UKT9]", "log2 fold change of degron read counts": 0.1}
{"residue_sequence": "FFCPICGHVFTQKGNLLRHIKL [46F_47F_49P_50I_52G_53H_54V_55F_67L_, Q9UKT9]", "log2 fold change of degron read counts": -1.19}
{"residue_sequence": "FGCPICGHEFTQKGNLLRHIKL [46F_47G_49P_50I_52G_53H_54E_55F_67L_, Q9UKT9]", "log2 fold change of degron read counts": -2.07}
{"residue_sequence": "FFCEVCGACFTQKGNLLRHIKL [46F_47F_49E_50V_52G_53A_54C_55F_67L_, Q9UKT9]", "log2 fold change of degron read counts": 2.56}
{"residue_sequence": "FWCEVCGACFTQKGNLLRHIKL [46F_47W_49E_50V_52G_53A_54C_55F_67L_, Q9UKT9]", "log2 fold change of degron read counts": 2.8}

Give log2 fold change of degron read counts for all sequences that follow.
1. FGCEVCGACFTQKGNLLRHIKL [46F_47G_49E_50V_52G_53A_54C_55F_67L_, Q9UKT9]
2. FRCDVCGALFTQKGNLLRHIKL [46F_47R_49D_50V_52G_53A_54L_55F_67L_, Q9UKT9]
3. FCCNICGAKFTQKGNLLRHIKL [46F_47C_49N_50I_52G_53A_54K_55F_67L_, Q9UKT9]

output:
[1.86, 0.228, -1.32]

Give log2 fold change of degron read counts for all sequences that follow.
1. FECEVCGACFTQKGNLLRHIKL [46F_47E_49E_50V_52G_53A_54C_55F_67L_, Q9UKT9]
2. FACEVCGACFTQKGNLLRHIKL [46F_47A_49E_50V_52G_53A_54C_55F_67L_, Q9UKT9]
3. FCCEVCGACFTQKGNLLRHIKL [46F_47C_49E_50V_52G_53A_54C_55F_67L_, Q9UKT9]

output:
[1.91, 1.45, 2.88]

Give log2 fold change of degron read counts for all sequences that follow.
1. FLCEICGHMFTQKGNLLRHIKL [46F_47L_49E_50I_52G_53H_54M_55F_67L_, Q9UKT9]
2. LRCNQCGFACTQKGNLLRHIKL [46L_47R_49N_50Q_52G_53F_54A_55C_67L_, Q9UKT9]
3. FLCEICGRRFTQKGNLLRHIKL [46F_47L_49E_50I_52G_53R_54R_55F_67L_, Q9UKT9]
4. FDCNVCGAMFTQKGNLLRHIKL [46F_47D_49N_50V_52G_53A_54M_55F_67L_, Q9UKT9]

output:
1. -2.56
2. -0.712
3. -1.89
4. -1.24
